Test: Half life in mouse liver microsomes at 1 uM in presence of NADPH preincubated for 15 mins followed by NADPH addition and measured up to 60 mins by LC-MS/MS analysis
Assay type: ADME, Microsome
Conditions: time 15-75 min
Reported endpoint: half-life at 1 µM (s)

Molecule smiles: COc1ccc2[nH]cc(CC(=O)N[C@@H](Cc3ccccc3)C(=O)N(C)c3ccc(Cl)cc3)c2c1
Measure unit: s
Result: 36

[I] COc1ccc2[nH]cc(CC(=O)N[C@@H](Cc3ccccc3)C(=O)N(C)c3ccccc3)c2c1
[II] CN(C(=O)[C@H](Cc1ccccc1)NC(=O)Cn1cnc2c1c(=O)n(C)c(=O)n2C)c1ccccc1
Q) // compare measured half-life at 1 µM, left I , right II , return larger Return value: the label identifying the chosen record.
A) II

Just for reference, ChEMBL document CHEMBL4706536 is where these values come from.
